Attribute: DC50
system tested: IRAK4 (Homo sapiens)
Construct: Degradation of IRAK4 in OCI-LY10 was quantitatively measured using Meso Scale Discovery technology; endogenous in cells; host or cells: OCI-LY10
Sequence (Q9NWZ3 whole entry): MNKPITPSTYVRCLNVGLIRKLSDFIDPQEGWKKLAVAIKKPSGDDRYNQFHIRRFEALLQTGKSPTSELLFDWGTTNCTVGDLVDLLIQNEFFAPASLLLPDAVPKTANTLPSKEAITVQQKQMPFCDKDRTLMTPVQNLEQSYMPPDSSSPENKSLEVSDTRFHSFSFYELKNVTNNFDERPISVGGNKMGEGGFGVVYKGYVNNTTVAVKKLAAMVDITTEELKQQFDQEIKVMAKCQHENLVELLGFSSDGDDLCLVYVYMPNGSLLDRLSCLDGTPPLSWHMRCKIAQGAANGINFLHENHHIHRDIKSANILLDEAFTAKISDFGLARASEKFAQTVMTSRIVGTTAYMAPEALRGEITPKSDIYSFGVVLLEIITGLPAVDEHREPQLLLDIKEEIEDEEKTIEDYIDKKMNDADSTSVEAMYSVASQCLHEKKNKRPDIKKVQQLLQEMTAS
test description: IRAK4 MSD Degradation in OCI-LY10
Format: cell-based
condition summary: OCI-LY10 cells, 4 hrs incubation, MSD; read-out: IRAK4 degradation in OCI-LY10 at 4 hrs: DC50

>  <molecule>
COc1ccc2c(c1N1CCC(N(C)C[C@H]3CC[C@H](n4cc(NC(=O)c5cnn6cccnc56)c(C(F)F)n4)CC3)C(F)C1)n(C)c(=O)n2C1CCC(=O)NC1=O (stereo partly drawn)

>  <DC50>
> 0.2 µM

$$$$

The reported DC50 value, IRAK4 (Homo sapiens), for Cn1c(=O)n(C2CCC(=O)NC2=O)c2cccc(N3CCC(C[C@H]4CC[C@H](n5cc6cc(NC(=O)c7cccc(C(F)(F)F)n7)ncc6n5)CC4)CC3)c21 (stereo partly drawn) reads > 0.2 µM

The reported DC50 value, IRAK4 (Homo sapiens), for Cn1c(=O)n(C2CCC(=O)NC2=O)c2ccc(F)c(N3CC(N4CCN([C@H]5CC[C@H](n6cc(NC(=O)c7cnn8ccc(N9C[C@H]%10C[C@@H]9CO%10)nc78)c(C(F)F)n6)CC5)CC4)C3)c21 (stereo partly drawn) reads > 0.2 µM

These measurements were taken from patent US12091411B2.
